Consider compounds characterized by their pIC50 with BuChE (Bos taurus).
Sequence (P32749 29-602): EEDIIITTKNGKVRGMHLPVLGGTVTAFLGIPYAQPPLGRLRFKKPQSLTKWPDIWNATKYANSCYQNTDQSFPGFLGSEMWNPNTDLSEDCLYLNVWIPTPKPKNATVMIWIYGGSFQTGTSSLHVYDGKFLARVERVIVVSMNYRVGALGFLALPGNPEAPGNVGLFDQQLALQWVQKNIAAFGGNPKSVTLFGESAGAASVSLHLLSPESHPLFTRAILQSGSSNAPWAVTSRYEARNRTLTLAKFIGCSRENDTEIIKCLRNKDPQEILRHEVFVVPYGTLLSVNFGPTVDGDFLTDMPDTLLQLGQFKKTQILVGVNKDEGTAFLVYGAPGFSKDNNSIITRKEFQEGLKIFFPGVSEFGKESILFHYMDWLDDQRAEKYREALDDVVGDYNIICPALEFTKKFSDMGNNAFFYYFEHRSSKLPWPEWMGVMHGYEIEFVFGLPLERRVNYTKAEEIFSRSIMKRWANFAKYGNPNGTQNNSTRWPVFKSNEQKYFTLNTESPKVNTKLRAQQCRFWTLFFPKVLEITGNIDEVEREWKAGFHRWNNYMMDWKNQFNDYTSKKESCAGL
pIC50: −log10 of the molar value.

- compound: "O=CNC1CC(c2ccncc2)Nc2c1ccc1cccnc21 (stereo not drawn)"
  pIC50: 3.86
- compound: "Nc1cccc2cccnc12 [8‐amino‐quinoline, reference compound]"
  pIC50: 3.71
- compound: "O=CNC1CC(c2ccccn2)Nc2c1ccc1cccnc21 (stereo not drawn)"
  pIC50: 3.82

----------
- assay-info: Neurotoxicity assay, cell viability by Neutral Red method
- Assay type: cell-based, human
- experimental-parameters: human, SH-SY5Y neuroblastoma cells

- compound: "COc1ccc(C2CC(NC=O)c3ccc4cccnc4c3N2)cc1 (stereo not drawn)"
  viability at 24 h, 1 mM: "78.5%"
- compound: "O=CNC1CC(c2ccc([N+](=O)[O-])cc2)Nc2c1ccc1cccnc21 (stereo not drawn)"
  viability at 24 h, 1 mM: "21.9%"
- compound: "O=CNC1CC(c2ccncc2)Nc2c1ccc1cccnc21 (stereo not drawn)"
  viability at 24 h, 1 mM: "102%"
